Data provenance: paper PMC11911205

SYSTEM_NAME: UniProt P08684
Sequence (P08684 2-503): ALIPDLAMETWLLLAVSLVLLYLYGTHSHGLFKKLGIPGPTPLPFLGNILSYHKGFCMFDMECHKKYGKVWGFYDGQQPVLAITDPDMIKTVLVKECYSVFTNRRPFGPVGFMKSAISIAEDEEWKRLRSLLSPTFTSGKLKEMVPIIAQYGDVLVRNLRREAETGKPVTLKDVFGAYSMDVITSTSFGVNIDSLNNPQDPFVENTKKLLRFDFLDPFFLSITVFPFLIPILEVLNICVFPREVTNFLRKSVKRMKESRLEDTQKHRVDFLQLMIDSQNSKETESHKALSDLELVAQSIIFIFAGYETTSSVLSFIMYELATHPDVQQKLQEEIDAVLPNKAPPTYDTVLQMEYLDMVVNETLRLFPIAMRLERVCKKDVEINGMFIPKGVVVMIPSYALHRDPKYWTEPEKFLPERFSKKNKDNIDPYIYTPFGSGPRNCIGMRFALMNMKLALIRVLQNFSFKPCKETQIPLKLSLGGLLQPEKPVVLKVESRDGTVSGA
RUN_DESCRIPTION: Vandetanib metabolism (N-demethyl vandetanib formation) and its inhibition by luteolin in human liver microsomes
ASSAY_CONTEXT: pH 7.4
ATTRIBUTE_MEASURED: IC50 at 30 min

Form: compound = O=c1cc(-c2ccc(O)c(O)c2)oc2cc(O)cc(O)c12 ; IC50 at 30 min = 15.8 µM

====

RUN_DESCRIPTION: Pharmacokinetics of vandetanib and N-demethyl vandetanib in SD rats with or without luteolin (UPLC-MS/MS of plasma)
Assay type: in vivo, Sprague-Dawley (SD) rats
ASSAY_CONTEXT: male, Sprague-Dawley, rat, plasma, po, 25 mg/kg, vandetanib 25 mg/kg by gavage alone (control group), plasma, read-out: Cmax
ATTRIBUTE_MEASURED: Cmax (ng/mL)
Numbers only, in ng/mL.

Form: compound = COc1cc2c(Nc3ccc(Br)cc3F)ncnc2cc1OCC1CCN(C)CC1 ; Cmax = 859

====

RUN_DESCRIPTION: Pharmacokinetics of vandetanib and N-demethyl vandetanib in SD rats with or without luteolin (UPLC-MS/MS of plasma)
Type: in vivo, Sprague-Dawley (SD) rats
ASSAY_CONTEXT: male, Sprague-Dawley, rat, plasma, po, 25 mg/kg, luteolin 30 mg/kg by gavage 30 min before vandetanib 25 mg/kg by gavage, plasma, read-out: CLz/F (converted)
ATTRIBUTE_MEASURED: CL/F (mL/min/kg)
Answers are plain numbers, in mL/min/kg.

Form: molecule = COc1cc2c(Nc3ccc(Br)cc3F)ncnc2cc1OCC1CCN(C)CC1 ; CL/F = 10.2

====

RUN_DESCRIPTION: Pharmacokinetics of vandetanib and N-demethyl vandetanib in SD rats with or without luteolin (UPLC-MS/MS of plasma)
Type: in vivo, Sprague-Dawley (SD) rats
ASSAY_CONTEXT: male, Sprague-Dawley, rat, plasma, po, 25 mg/kg, luteolin 30 mg/kg by gavage 30 min before vandetanib 25 mg/kg by gavage, plasma, read-out: AUC(0-t)
Description: Male SD rats weighing 180–220 g were provided by the Laboratory Animal Center of the First Affiliated Hospital of Wenzhou Medical University (Zhejiang, China). They were housed under standard conditions with a temperature of 20°C–26°C, a relative humidity of 55% ± 15%, and a 12-h dark/light cycle. The rats had free access to water and no other drugs were given during the feeding period, and were prohibited from eating for 12 h before the experiment. […]
ATTRIBUTE_MEASURED: AUC(0-t) (ng·h/mL)
Give bare numbers, in ng·h/mL.

Form: compound = COc1cc2c(Nc3ccc(Br)cc3F)ncnc2cc1OCC1CCN(C)CC1 ; AUC(0-t) = 37100

====

RUN_DESCRIPTION: Pharmacokinetics of vandetanib and N-demethyl vandetanib in SD rats with or without luteolin (UPLC-MS/MS of plasma)
Type: in vivo, Sprague-Dawley (SD) rats
ASSAY_CONTEXT: male, Sprague-Dawley, rat, plasma, po, 25 mg/kg, luteolin 30 mg/kg by gavage 30 min before vandetanib 25 mg/kg by gavage, plasma
ATTRIBUTE_MEASURED: half-life (h)
Answers are plain numbers, in h.

Form: molecule = COc1cc2c(Nc3ccc(Br)cc3F)ncnc2cc1OCC1CCN(C)CC1 ; half-life = 23

====

RUN_DESCRIPTION: Pharmacokinetics of vandetanib and N-demethyl vandetanib in SD rats with or without luteolin (UPLC-MS/MS of plasma)
Format: in vivo, Sprague-Dawley (SD) rats
ASSAY_CONTEXT: male, Sprague-Dawley, rat, plasma, po, 25 mg/kg, luteolin 30 mg/kg by gavage 30 min before vandetanib 25 mg/kg by gavage, plasma, read-out: Tmax
ATTRIBUTE_MEASURED: Tmax (h)
Give bare numbers, in h.

Form: compound = COc1cc2c(Nc3ccc(Br)cc3F)ncnc2cc1OCC1CCN(C)CC1 [Vandetanib] ; Tmax = 7.6

====

RUN_DESCRIPTION: Pharmacokinetics of vandetanib and N-demethyl vandetanib in SD rats with or without luteolin (UPLC-MS/MS of plasma)
Format: in vivo, Sprague-Dawley (SD) rats
ASSAY_CONTEXT: male, Sprague-Dawley, rat, plasma, po, 25 mg/kg, vandetanib 25 mg/kg by gavage alone (control group), plasma, read-out: Tmax
ATTRIBUTE_MEASURED: Tmax

Form: compound = COc1cc2c(Nc3ccc(Br)cc3F)ncnc2cc1OCC1CCN(C)CC1 ; Tmax = 8.8 h

====

RUN_DESCRIPTION: Pharmacokinetics of vandetanib and N-demethyl vandetanib in SD rats with or without luteolin (UPLC-MS/MS of plasma)
Assay type: in vivo, Sprague-Dawley (SD) rats
ASSAY_CONTEXT: male, Sprague-Dawley, rat, plasma, po, 25 mg/kg, luteolin 30 mg/kg by gavage 30 min before vandetanib 25 mg/kg by gavage, plasma
ATTRIBUTE_MEASURED: AUC(0-inf)
Quick note: unit goes after the number.

Form: compound = COc1cc2c(Nc3ccc(Br)cc3F)ncnc2cc1OCC1CCN(C)CC1 ; AUC(0-inf) = 41100 ng·h/mL

====

RUN_DESCRIPTION: Pharmacokinetics of vandetanib and N-demethyl vandetanib in SD rats with or without luteolin (UPLC-MS/MS of plasma)
Format: in vivo, Sprague-Dawley (SD) rats
ASSAY_CONTEXT: male, Sprague-Dawley, rat, plasma, po, 25 mg/kg, vandetanib 25 mg/kg by gavage alone (control group), plasma
ATTRIBUTE_MEASURED: half-life (h)
One number for each entry, in h.

Form: molecule = COc1cc2c(Nc3ccc(Br)cc3F)ncnc2cc1OCC1CCN(C)CC1 ; half-life = 26.6

====

RUN_DESCRIPTION: Pharmacokinetics of vandetanib and N-demethyl vandetanib in SD rats with or without luteolin (UPLC-MS/MS of plasma)
Assay type: in vivo, Sprague-Dawley (SD) rats
ASSAY_CONTEXT: male, Sprague-Dawley, rat, plasma, po, 25 mg/kg, vandetanib 25 mg/kg by gavage alone (control group), plasma, read-out: AUC(0-t)
ATTRIBUTE_MEASURED: AUC(0-t) (ng·h/mL)
Answers are plain numbers, in ng·h/mL.

Form: compound = COc1cc2c(Nc3ccc(Br)cc3F)ncnc2cc1OCC1CCN(C)CC1 ; AUC(0-t) = 31400

====

Test system: vandetanib metabolism (N-demethyl vandetanib formation) in rat liver microsomes
RUN_DESCRIPTION: Vandetanib metabolism (N-demethyl vandetanib formation) and its inhibition by luteolin in rat liver microsomes
ASSAY_CONTEXT: rat, rat liver microsomes, pH 7.4, probe vandetanib at its Km value in RLM
ATTRIBUTE_MEASURED: IC50 at 30 min (µM)
Give bare numbers, in µM.

Form: molecule = O=c1cc(-c2ccc(O)c(O)c2)oc2cc(O)cc(O)c12 ; IC50 at 30 min = 8.56

====

RUN_DESCRIPTION: Pharmacokinetics of vandetanib and N-demethyl vandetanib in SD rats with or without luteolin (UPLC-MS/MS of plasma)
Type: in vivo, Sprague-Dawley (SD) rats
ASSAY_CONTEXT: male, Sprague-Dawley, rat, plasma, po, 25 mg/kg, vandetanib 25 mg/kg by gavage alone (control group), plasma, read-out: CLz/F (converted)
ATTRIBUTE_MEASURED: CL/F (mL/min/kg)
Answers are plain numbers, in mL/min/kg.

Form: molecule = COc1cc2c(Nc3ccc(Br)cc3F)ncnc2cc1OCC1CCN(C)CC1 ; CL/F = 11.7
